# Condition: bacteroides stercoris, 12 h, 2 µM;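 further: drug levels quantified by LC–MS at the start and end of incubation with the bacterium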
# Description: The drug is tested on Bacteroides stercoris strain: ATCC43183 for biotransformation. The drug concentrations were measured before and after a 12-h incubation by liquid-chromatography-coupled mass spectrometry (LC–MS)

| Molecule | Bacterial Biotransformation |
| --- | --- |
| CN1CCN(CC/C=C2/c3ccccc3Sc3ccc(S(=O)(=O)N(C)C)cc32)CC1 | Compound metabolized |
| CC(C)OC(=O)C(C)(C)Oc1ccc(C(=O)c2ccc(Cl)cc2)cc1 [FENOFIBRATE] | Compound NOT metabolized |
| CSc1ccc2c(c1)C(N1CCN(C)CC1)Cc1ccccc1S2.O=C(O)/C=C\C(=O)O (centres undefined) | Compound NOT metabolized |
| CCCc1nc2c(C)cc(-c3nc4ccccc4n3C)cc2n1Cc1ccc(-c2ccccc2C(=O)O)cc1 | Compound metabolized |
| C#C[C@]1(O)CC[C@H]2[C@@H]3CCC4=CC(=O)CC[C@@H]4[C@H]3CC[C@@]21CC | Compound metabolized |
| CN1[C@@H]2CC[C@H]1C[C@@H](OC(=O)C(CO)c1ccccc1)C2 (some centres undefined) | Compound NOT metabolized |
| CC(=O)OCC(=O)[C@@]12N=C(C)O[C@@H]1C[C@H]1[C@@H]3CCC4=CC(=O)C=C[C@]4(C)[C@H]3[C@@H](O)C[C@@]12C | Compound metabolized |
| CN1CCc2cccc3c2[C@H]1Cc1ccc(O)c(O)c1-3 | Compound NOT metabolized |
| Nc1nc2ccc(OC(F)(F)F)cc2s1 | Compound metabolized |
| CC#CCn1c(N2CCC[C@@H](N)C2)nc2c1c(=O)n(Cc1nc(C)c3ccccc3n1)c(=O)n2C | Compound metabolized |
| CCCC(=O)Nc1ccc(OCC(O)CNC(C)C)c(C(C)=O)c1 (centres undefined) | Compound NOT metabolized |
| CCN(CC)CCOC(=O)C(Cc1cccc2ccccc12)CC1CCCO1.O=C(O)C(=O)O (centres undefined) [NAFRONYL OXALATE] | Compound NOT metabolized |
| CC1=C(CC(=O)O)c2cc(F)ccc2/C1=C\c1ccc([S+](C)[O-])cc1 (centres undefined) | Compound NOT metabolized |
| CCN(CC)CCNC(=O)c1cc(Cl)c(N)cc1OC [METOCLOPRAMIDE] | Compound NOT metabolized |
| C[C@H]1O[C@@H](O[C@H]2[C@@H](O)C[C@H](O[C@H]3[C@@H](O)C[C@H](O[C@H]4CC[C@@]5(C)[C@H](CC[C@@H]6[C@@H]5C[C@@H](O)[C@]5(C)[C@@H](C7=CC(=O)OC7)CC[C@]65O)C4)O[C@@H]3C)O[C@@H]2C)C[C@H](O)[C@@H]1O | Compound metabolized |
| CC(N)C12CC3CC(CC(C3)C1)C2 (centres undefined) | Compound NOT metabolized |
| Nc1nc(NC2CC2)c2ncn([C@H]3C=C[C@@H](CO)C3)c2n1.Nc1nc(NC2CC2)c2ncn([C@H]3C=C[C@@H](CO)C3)c2n1.O=S(=O)(O)O [ABACAVIR SULFATE] | Compound NOT metabolized |
| CC(C)[C@H]1CC[C@H](C(=O)N[C@H](Cc2ccccc2)C(=O)O)CC1 [NATEGLINIDE] | Compound NOT metabolized |
| Cc1cc2c(cc1S(N)(=O)=O)S(=O)(=O)CCC2 | Compound NOT metabolized |
| CCOc1ccc(NC(C)=O)cc1 | Compound NOT metabolized |
| C=C[C@H]1CN2CC[C@H]1C[C@H]2[C@H](O)c1ccnc2ccc(OC)cc12.C=C[C@H]1CN2CC[C@H]1C[C@H]2[C@H](O)c1ccnc2ccc(OC)cc12.O.O.O=S(=O)(O)O [QUININE SULFATE] | Compound NOT metabolized |
| CN(C)C(=O)Oc1cc(OC(=O)N(C)C)cc(C(O)CNC(C)(C)C)c1 (centres undefined) | Compound NOT metabolized |
| NC12CC3CC(CC(C3)C1)C2 | Compound NOT metabolized |
| Cc1ccc(S(=O)(=O)NC(=O)NN2CC3CCCC3C2)cc1 (centres undefined) [GLICLAZIDE] | Compound NOT metabolized |
| CN1C(=O)CC(C)(c2ccccc2)C1=O (centres undefined) [METHSUXIMIDE] | Compound NOT metabolized |
| CN1CC(=O)N2[C@H](c3ccc4c(c3)OCO4)c3[nH]c4ccccc4c3C[C@@H]2C1=O | Compound NOT metabolized |
| CCOC(=O)C1=C[C@]2(CC)CCCN3CCc4c(n1c1ccccc41)[C@@H]32 | Compound NOT metabolized |
| O=C1C(CC[S+]([O-])c2ccccc2)C(=O)N(c2ccccc2)N1c1ccccc1 (centres undefined) | Compound NOT metabolized |
| Clc1cccc(Cl)c1N=C1NCCN1 | Compound metabolized |
| CN1CCOC(c2ccccc2)c2ccccc2C1 (centres undefined) | Compound NOT metabolized |
| CC(=O)CC(c1ccccc1)c1c(O)c2ccccc2oc1=O (centres undefined) | Compound NOT metabolized |
| O=C(O)CCc1nc(-c2ccccc2)c(-c2ccccc2)o1 | Compound NOT metabolized |
| COC(=O)C(c1ccccc1)C1CCCCN1 (centres undefined) [METHYLPHENIDATE] | Compound NOT metabolized |
| Cc1ccccc1N1C(=O)c2cc(S(N)(=O)=O)c(Cl)cc2NC1C (centres undefined) | Compound NOT metabolized |
